Assay: Solubility test in biological media (SGF, FaSSIF, FeSSIF) and water at 37° C.
Assay type: physicochemical
Conditions: pH 4.97, thermodynamic from solid, FeSSIF
Method: Crystalline form III has the highest solubility in SGF (>7 mg/mL). The solubility in pure water, FeSSIF, and FaSSIF were all greater than 1 mg/mL.
measurementName: solubility

IN: Param item = CC(C)C(=O)OC[C@H]1O[C@@](C#N)(c2ccc3c(N)ncnn23)[C@H](O)[C@@H]1O [crystalline form III] ; retrieve measured solubility.
OUT: > 1000 µg/mL

====

assay: Solubility test in biological media (SGF, FaSSIF, FeSSIF) and water at 37° C.; type: physicochemical; details: thermodynamic from solid, Water (pH = 6.67), 2 h, read-out: Solubility (mg/mL) 2 h
measurementName: solubility at 2 h (mg/mL)
Give bare numbers, in mg/mL.

IN: Recorded solubility at 2 h for CC(C)C(=O)OC[C@H]1O[C@@](C#N)(c2ccc3c(N)ncnn23)[C@H](O)[C@@H]1O [crystalline form III] , please?
OUT: 1.22

====

test: Solubility test in biological media (SGF, FaSSIF, FeSSIF) and water at 37° C.; type: physicochemical; settings: thermodynamic from solid, FeSSIF (pH = 4.97), 24 h, read-out: Solubility (mg/mL) 24 h
measurementName: solubility at 24 h (mg/mL)
Numbers only, in mg/mL.

IN: I have this molecule here, CC(C)C(=O)OC[C@H]1O[C@@](C#N)(c2ccc3c(N)ncnn23)[C@H](O)[C@@H]1O [crystalline form III] , and I need its recorded solubility at 24 h.
OUT: 1.68

====

test: Solubility test in biological media (SGF, FaSSIF, FeSSIF) and water at 37° C.; type: physicochemical; conditions: thermodynamic from solid, FeSSIF (pH = 4.97), 0.5 h, read-out: Solubility (mg/mL) 0.5 h
measurementName: solubility at 0.5 h

IN: What measured solubility at 0.5 h goes with CC(C)C(=O)OC[C@H]1O[C@@](C#N)(c2ccc3c(N)ncnn23)[C@H](O)[C@@H]1O [crystalline form III] ?
OUT: 1.63 mg/mL

====

assay: Solubility test in biological media (SGF, FaSSIF, FeSSIF) and water at 37° C.; type: physicochemical; conditions: pH 1.2, simulated gastric fluid, thermodynamic from solid, SGF (pH = 1.20), 0.5 h, 2 h, 24 h, visual observation
measurementName: solubility

IN: Which solubility reading was recorded for the molecule CC(C)C(=O)OC[C@H]1O[C@@](C#N)(c2ccc3c(N)ncnn23)[C@H](O)[C@@H]1O [crystalline form III] ?
OUT: > 7000 µg/mL

====

experiment: Solubility test in biological media (SGF, FaSSIF, FeSSIF) and water at 37° C.; format: physicochemical; settings: thermodynamic from solid, FeSSIF (pH = 4.97), 2 h, read-out: Solubility (mg/mL) 2 h
measurementName: solubility at 2 h (mg/mL)
Answers are plain numbers, in mg/mL.

IN: If you can, please state the reported solubility at 2 h value of CC(C)C(=O)OC[C@H]1O[C@@](C#N)(c2ccc3c(N)ncnn23)[C@H](O)[C@@H]1O [crystalline form III] .
OUT: 1.66

====

assay: Solubility test in biological media (SGF, FaSSIF, FeSSIF) and water at 37° C.; format: physicochemical; conditions: pH 6.67, thermodynamic from solid, pure water
measurementName: solubility

IN: Recorded solubility of CC(C)C(=O)OC[C@H]1O[C@@](C#N)(c2ccc3c(N)ncnn23)[C@H](O)[C@@H]1O [crystalline form III] , please.
OUT: > 1 mg/mL
